# System: KRAS G12V (Homo sapiens, UniProt P01116, G12V)
# Construct: SW620-KRAS (G12V)-HiBit-KI cell (Pharmaron); host or cells: SW620-KRAS (G12V)-HiBit-KI cells (HiBiT knock-in at the endogenous KRAS locus)
# Sequence (P01116 1-188 isoform P01116-2 G12V): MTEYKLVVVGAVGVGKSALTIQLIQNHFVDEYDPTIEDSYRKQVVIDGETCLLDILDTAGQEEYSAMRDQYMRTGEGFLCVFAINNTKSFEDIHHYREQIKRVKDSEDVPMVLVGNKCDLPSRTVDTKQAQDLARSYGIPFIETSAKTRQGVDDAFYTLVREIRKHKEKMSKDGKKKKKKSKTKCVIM
# Test: KRAS G12V HiBit assay
# Type: cell-based
# Measurement Conditions: SW620-KRAS (G12V)-HiBit-KI cells, compound treatment for 24 hours, class symbols
Property Measured: DC50

Compound: Cn1c(=O)n(C2CCC(=O)NC2=O)c2ccc(C3CCN(C4CC5(CCN(C(=O)OC[C@@H]6CC[C@]7(COc8nc(N9CCC[C@@](C)(O)C9)c9cnc(-c%10cc(O)cc%11cccc(Cl)c%10%11)c(F)c9n8)CCCN67)CC5)C4)CC3)cc21 (stereo partly drawn)
DC50: < 10 nM
--
Compound: C#Cc1c(F)ccc2cc(O)cc(-c3ncc4c(N5CCCCC5)nc(OCC5(CN6CCN(CC7CCN(c8ccc9c(c8)n(C)c(=O)n9C8CCC(=O)NC8=O)CC7)CC6)CC5)nc4c3F)c12 (stereo not drawn)
DC50: > 100 nM
--
Compound: C#Cc1c(F)ccc2cc(O)cc(-c3ncc4c(N5CCC[C@@](C)(O)C5)nc(OC[C@@]56CCCN5[C@H](COC(=O)N5CCC(OCC#Cc7ccc8c(c7)n(C)c(=O)n8C7CCC(=O)NC7=O)CC5)CC6)nc4c3F)c12 (stereo partly drawn)
DC50: < 10 nM
--
Compound: CCc1c(F)ccc2cc(O)cc(-c3ncc4c(N5CCC[C@@](C)(O)C5)nc(OC[C@@]56CCCN5[C@H](CN5CCC(CN7CCC(c8ccc9c(c8)n(C)c(=O)n9C8CCC(=O)NC8=O)CC7)CC5)CC6)nc4c3F)c12 (stereo partly drawn)
DC50: 10 to 100 nM
--
Compound: CCc1c(F)ccc2cc(O)cc(-c3ncc4c(N5CCC[C@@](C)(O)C5)nc(OC[C@@]56CCCN5[C@H](COC(=O)N5CCC(CN7CCC(c8cc9c(cc8F)c(C8CCC(=O)NC8=O)nn9C)CC7)CC5)CC6)nc4c3F)c12 (stereo partly drawn)
DC50: < 10 nM
--
Compound: CCc1c(F)ccc2cc(O)cc(-c3ncc4c(N5CCC[C@](C)(N)C5)nc(OC[C@@]56CCCN5[C@H](COC(=O)N5CCC7(CC5)CC(N5CCC(c8ccc9c(c8)n(C)c(=O)n9C8CCC(=O)NC8=O)CC5)C7)CC6)nc4c3F)c12 (stereo partly drawn)
DC50: < 10 nM

**Query** Determine reported DC50 for Cn1c(=O)n(C2CCC(=O)NC2=O)c2cc(C3CCN(CC4CCN(C(=O)CN5CCN(c6nccc(-c7noc([C@@]8(C)CCCc9sc(N)c(C#N)c98)n7)n6)CC5)CC4)CC3)ccc21 (stereo partly drawn) ; test system: KRAS G12V (Homo sapiens, UniProt P01116, G12V).
**Result** > 100 nM

**Query** Determine reported DC50 for CCc1c(F)ccc2cc(O)cc(-c3ncc4c(N5CCC[C@@](C)(O)C5)nc(OC[C@@]56CCCN5[C@H](COC(=O)N5CCC(CN7CCN(c8ccc9c(c8)n(C)c(=O)n9C8CCC(=O)NC8=O)CC7)CC5)CC6)nc4c3F)c12 (stereo partly drawn) ; test system: KRAS G12V (Homo sapiens, UniProt P01116, G12V).
**Result** < 10 nM

**Query** Determine reported DC50 for CCc1c(F)ccc2cc(O)cc(-c3ncc4c(N5CCC[C@@](C)(O)C5)nc(OC[C@]56CCCN5[C@H](COC(=O)NC5CCCN(c7cccc8c7n(C)c(=O)n8C7CCC(=O)NC7=O)C5)CC6)nc4c3F)c12 (stereo partly drawn) ; test system: KRAS G12V (Homo sapiens, UniProt P01116, G12V).
**Result** 10 to 100 nM
